Listed below: cell viability values for each entry.
System: MOLM14
ASSAY_OVERVIEW: cell viability relative to vehicle control; higher = less cytotoxic;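 note: after 48 h exposure read by CellTiter-Glo luminescence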
STUDY_CONDITIONS: 10 µM; SRSF2 genotype: SRSF2 wt/wt
OBSERVED_PROPERTY: cell viability (%)

Nc1ncnc2c1ncn2C1OC(COP(=O)(O)OP(=O)(O)O)C(O)C1O (stereo unspecified) = 95
COc1ccc(CCc2nc3cc(-c4c(C)noc4C)ccc3n2C[C@H](C)N2CCOCC2)cc1Cl = 42.5
C#C[C@]1(O)CC[C@H]2[C@@H]3CCC4=CCCC[C@@H]4[C@H]3C(=C)C[C@@]21CC [Desogestrel] = 79.9
O=C(NC(NC(=S)Nc1ccc(F)c([N+](=O)[O-])c1)C(Cl)(Cl)Cl)C(c1ccccc1)c1ccccc1 (stereo unspecified) = 4.68
CC[C@H](C)n1cc(C)c2c(C(=O)NCc3c(C)cc(C)[nH]c3=O)cc(-c3ccc(N4CCNCC4)nc3)cc21 = 81.7
CC(C)=CCC[C@](C)(O[C@@H]1O[C@H](CO)[C@@H](O)[C@H](O)[C@H]1O)[C@H]1CC[C@]2(C)[C@@H]1[C@H](O)C[C@@H]1[C@@]3(C)CC[C@H](O)C(C)(C)[C@@H]3[C@@H](O[C@@H]3O[C@H](CO)[C@@H](O)[C@H](O)[C@H]3O[C@@H]3O[C@@H](C)[C@H](O)[C@@H](O)[C@H]3O)C[C@]12C [Ginsenoside Re] = 106

* * *

System: K562
ASSAY_OVERVIEW: cell viability relative to vehicle control; higher = less cytotoxic
STUDY_CONDITIONS: 10 µM; SRSF2 genotype: SRSF2 wt/wt
Listed below: cell viability values for each entry.
OBSERVED_PROPERTY: cell viability (%)

CC(=O)NC[C@H]1CN(c2ccc(N3CCOCC3)c(F)c2)C(=O)O1 [Linezolid (Zyvox)] = 84.3
O=c1ccoc2cc(O)ccc12 [7-Hydroxy-4-chromone] = 93.5
Cc1c(C)c2c(c(C)c1O)CCC(C)(CCCC(C)CCCC(C)CCCC(C)C)O2 (configuration not stated) = 108
CC[C@@H]1C(=O)N(C)c2cnc(Nc3ccc(C(=O)N[C@H]4CC[C@H](N5CCN(CC6CC6)CC5)CC4)cc3OC)nc2N1C(C)C = 9.46
CNC(=O)c1ccc2cc([C@@]3(O)CCn4cncc43)ccc2c1 = 97.3
COc1ccc([C@@H]2CC(=O)c3c(O)cc(O[C@@H]4O[C@H](CO)[C@@H](O)[C@H](O)[C@H]4O[C@@H]4O[C@@H](C)[C@H](O)[C@@H](O)[C@H]4O)cc3O2)cc1 = 99.2
CCS(=O)(=O)N1CC(CC#N)(n2cc(-c3ncnc4[nH]ccc34)cn2)C1 = 108

* * *

System: MARIMO
ASSAY_OVERVIEW: cell viability relative to vehicle control; higher = less cytotoxic
STUDY_CONDITIONS: 10 µM; SRSF2 genotype: SRSF2 P95H/wt
OBSERVED_PROPERTY: cell viability (%)

CC1(C)C=C(CN2C/C(=C\c3ccc(F)cc3)C(=O)/C(=C/c3ccc(F)cc3)C2)C(C)(C)N1O = 0.52
O=C(O)c1ccc2c3c1cccc3c(=O)n1c3ccccc3nc21 = 107
NC(N)=N/N=C/c1c(Cl)cccc1Cl [Guanabenz (WY-8678) Acetate] = 83.3
OC(CN1CCN(c2cccc(Cl)c2)CC1)C(c1ccccc1)c1ccccc1 (stereo unspecified) = 84.2
CC(C)OC(=O)CCC/C=C\C[C@@H]1[C@@H](/C=C/C(F)(F)COc2ccccc2)[C@H](O)C[C@@H]1O = 85
C=C(C)[C@@H]1CC[C@]2(C(=O)O[C@@H]3O[C@H](CO[C@@H]4O[C@H](CO)[C@@H](O[C@@H]5O[C@@H](C)[C@H](O)[C@@H](O)[C@H]5O)[C@H](O)[C@H]4O)[C@@H](O)[C@H](O)[C@H]3O)CC[C@]3(C)[C@H](CC[C@@H]4[C@@]5(C)CC[C@H](O[C@@H]6OC[C@H](O)[C@H](O)[C@H]6O[C@@H]6O[C@@H](C)[C@H](O)[C@@H](O)[C@H]6O)[C@@](C)(CO)[C@@H]5CC[C@]43C)[C@@H]12 [Anemoside B4] = 96.1
